Source: patent US11072632B2

In this section, each of the compounds is paired with its reported inhibition at 1 µM.
biological target: 17β-HSD3 (Homo sapiens, UniProt P37058); construct: expressed in transfected cells; host or cells: HEK-293 (homogenate); test: Inhibition of 17β-HSD3 in homogenated HEK-293 cells; assay type: biochemical; settings: read-out: Homo (%) (1.0 μM), Table 4; 1.0 μM

Here's what some known entries look like.
compound | inhibition at 1 µM
C[C@]12CC[C@@]3(C[C@@H]1CC[C@@H]1[C@@H]2CC[C@]2(C)C(=O)CC[C@@H]12)CN(CCC(CN1CCOCC1)OC(=O)CCC1CCCC1)C(=O)O3 (some centres unmarked) [Compound 4, reference compound] | 94%
CCN(CCN1C[C@]2(CC[C@@]3(C)[C@@H](CC[C@@H]4[C@@H]3CC[C@]3(C)C(=O)CC[C@@H]43)C2)OC1=O)C1CCCCC1 [Compound 23e] | 72%
Cc1ccc(CN2C[C@]3(CC[C@@]4(C)[C@@H](CC[C@@H]5[C@@H]4CC[C@]4(C)C(=O)C(C)(C)C[C@@H]54)C3)OC2=O)cc1 [Compound 18] | 74%

# context switch: different compound, same inhibition at 1 µM
Exercise: Name the reported inhibition at 1 µM value associated with the compound COc1ccc(CN2C[C@]3(CC[C@@]4(C)[C@@H](CC[C@@H]5[C@@H]4CC[C@]4(C)C(=O)CC[C@@H]54)C3)OC2=O)cc1 [Compound 17c]
Key: 93%

###

target: 17β-HSD3 (Homo sapiens); construct: expressed in transfected cells; host or cells: HEK-293 (homogenate); experiment: Inhibition of 17β-HSD3 in homogenated HEK-293 cells; assay type: biochemical; conditions: Table 3; 0.1 μM; read-out: Homo (%) (0.1 μM)
Reported inhibition at 0.1 µM values follow for various compounds
Give the number; % is assumed, so skip it.

Here is how some compounds turned out for inhibition at 0.1 µM.
compound | assayedSystem | reported
C[C@]12CC[C@](O)(CN3CCN(Cc4cccc(SC(F)(F)F)c4)CC3)C[C@@H]1CC[C@@H]1[C@@H]2CC[C@]2(C)C(=O)CC[C@@H]12 [Compound 10d] | 17β-HSD3 (Homo sapiens) | 91
C[C@]12CC[C@](O)(CN3CCN(Cc4ccc(C(F)(F)F)cc4)CC3)C[C@@H]1CC[C@@H]1[C@@H]2CC[C@]2(C)C(=O)CC[C@@H]12 [Compound 10c] | 17β-HSD3 (Homo sapiens) | 81

Exercise: Return inhibition at 0.1 µM measured with 17β-HSD3 (Homo sapiens) given this compound: C[C@]12CC[C@](O)(CN3CCN(C(=O)c4ccccc4C(F)(F)F)CC3)C[C@@H]1CC[C@@H]1[C@@H]2CC[C@]2(C)C(=O)CC[C@@H]12 [Compound 12c]
Key: 86

###

Items are presented alongside their recorded inhibition at 1 µM.
target: 17β-HSD10 (Homo sapiens, UniProt Q99714); construct: expressed in transfected cells; assay: Inhibition of 17β-HSD10 in stably transfected HEK-293 whole cells (E2 into E1); assay type: cell-based; details: HEK293; [14C]-E2 (1 μM) into [14C]-E1, intact HEK-293 cells, 1 μM; read-out: Inhibition (%) at 1 μM
Sequence (Q99714 whole entry): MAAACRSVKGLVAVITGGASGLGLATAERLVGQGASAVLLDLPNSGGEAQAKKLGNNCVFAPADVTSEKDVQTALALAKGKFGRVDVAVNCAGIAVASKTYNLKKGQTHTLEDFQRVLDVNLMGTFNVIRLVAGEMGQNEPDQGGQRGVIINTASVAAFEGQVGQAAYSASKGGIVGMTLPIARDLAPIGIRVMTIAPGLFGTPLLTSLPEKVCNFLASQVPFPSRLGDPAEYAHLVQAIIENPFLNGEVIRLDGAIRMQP
Report the value in % with no unit label.

Exercise: What inhibition at 1 µM value was documented for this compound, C[C@]12CC[C@](O)(CN3CCN(Cc4cccnc4)CC3)C[C@@H]1CC[C@@H]1[C@@H]2CC[C@]2(C)C(=O)CC[C@@H]12 [Compound 10g] ?
Key: 37

###

Biological target: 17β-HSD3 (Homo sapiens, UniProt P37058)
Construct: expressed in transfected cells; host or cells: HEK-293 (homogenate)
Sequence (P37058 1-310): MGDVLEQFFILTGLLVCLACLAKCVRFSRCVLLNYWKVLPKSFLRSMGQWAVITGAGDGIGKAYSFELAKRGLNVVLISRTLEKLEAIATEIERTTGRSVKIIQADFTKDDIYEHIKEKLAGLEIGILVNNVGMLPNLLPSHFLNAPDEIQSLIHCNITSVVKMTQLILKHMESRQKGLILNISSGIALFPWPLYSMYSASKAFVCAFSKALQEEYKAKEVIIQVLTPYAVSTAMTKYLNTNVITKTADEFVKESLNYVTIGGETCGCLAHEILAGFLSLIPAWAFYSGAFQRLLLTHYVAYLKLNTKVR
Experiment: Inhibition of 17β-HSD3 in homogenated HEK-293 cells
Assay type: biochemical
Conditions: Table 3; 0.1 μM
This listing pairs compounds with measured Homo (%) (0.1 μM).
Give just the number in %; leave the unit off.

# annotated cases, reported Homo (%) (0.1 μM) shown
compound | metricName | reported
CC1CN(C[C@@]2(O)CC[C@@]3(C)[C@@H](CC[C@@H]4[C@@H]3CC[C@]3(C)C(=O)CC[C@@H]43)C2)C(C)CN1Cc1ccc(C(F)(F)F)cc1 (stereo partly drawn) [Compound 11c] | Homo (%) (0.1 μM) | 87
CC1CN(C(=O)c2ccc(C(F)(F)F)cc2)C(C)CN1C[C@@]1(O)CC[C@@]2(C)[C@@H](CC[C@@H]3[C@@H]2CC[C@]2(C)C(=O)CC[C@@H]32)C1 (stereo partly drawn) [Compound 13d] | Homo (%) (0.1 μM) | 91

Exercise: Homo (%) (0.1 μM) lookup needed for CC1CN(S(=O)(=O)c2cccc(C(F)(F)F)c2)C(C)CN1C[C@@]1(O)CC[C@@]2(C)[C@@H](CC[C@@H]3[C@@H]2CC[C@]2(C)C(=O)CC[C@@H]32)C1 (stereo partly drawn) [Compound 15a] , thanks.
Key: 91

###

Target: 17β-HSD3 (Homo sapiens)
Construct: expressed in transfected cells; host or cells: HEK-293 (homogenate)
Sequence (P37058 1-310): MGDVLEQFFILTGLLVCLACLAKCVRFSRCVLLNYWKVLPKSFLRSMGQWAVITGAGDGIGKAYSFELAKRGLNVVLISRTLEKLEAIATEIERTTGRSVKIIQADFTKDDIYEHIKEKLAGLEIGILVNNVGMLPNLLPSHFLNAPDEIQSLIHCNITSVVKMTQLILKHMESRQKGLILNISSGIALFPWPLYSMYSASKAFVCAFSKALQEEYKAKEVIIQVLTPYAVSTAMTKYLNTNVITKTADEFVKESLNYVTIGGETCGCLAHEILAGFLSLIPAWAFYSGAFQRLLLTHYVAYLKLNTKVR
Assay: Inhibition of 17β-HSD3 in intact HEK-293 cells
Type: cell-based
Settings: HEK293, 1 h, Table 3; 0.1 μM; read-out: Intact cells (%) (0.1 μM)
metricName: inhibition at 0.1 µM (%)
Please give a number only; it is taken to be in %.

Record excerpt, results attached:
compound | metricName | reported
C[C@]12CC[C@](O)(CN3CCN(Cc4ccccc4C(F)(F)F)CC3)C[C@@H]1CC[C@@H]1[C@@H]2CC[C@]2(C)C(=O)CC[C@@H]12 [Compound 10b] | inhibition at 0.1 µM | 20
C[C@]12CC[C@](O)(CN3CCN(Cc4ccc(C(F)(F)F)cc4)CC3)C[C@@H]1CC[C@@H]1[C@@H]2CC[C@]2(C)C(=O)CC[C@@H]12 [Compound 10c] | inhibition at 0.1 µM | 33
C[C@]12CC[C@](O)(CN3CCN(C(=O)c4ccc(C(F)(F)F)cc4)CC3)C[C@@H]1CC[C@@H]1[C@@H]2CC[C@]2(C)C(=O)CC[C@@H]12 [Compound 12e] | inhibition at 0.1 µM | 56
COc1cccc(CN2CCN(C[C@@]3(O)CC[C@@]4(C)[C@@H](CC[C@@H]5[C@@H]4CC[C@]4(C)C(=O)CC[C@@H]54)C3)CC2)c1 [Compound 10f] | inhibition at 0.1 µM | 47
C[C@]12CC[C@](O)(CN3CCN(Cc4cccc(C(F)(F)F)c4)CC3)C[C@@H]1CC[C@@H]1[C@@H]2CC[C@]2(C)C(=O)CC[C@@H]12 [Compound 10a] | inhibition at 0.1 µM | 52

Exercise: Form field: reported inhibition at 0.1 µM of C[C@]12CC[C@](O)(CN3CCN(C(=O)c4cccc(C(F)(F)F)c4)CC3)C[C@@H]1CC[C@@H]1[C@@H]2CC[C@]2(C)C(=O)CC[C@@H]12 [Compound 12d]
Key: 91

Exercise: Requested read-out: inhibition at 0.1 µM. Entry: COc1cccc(CN2CC(C)N(C[C@@]3(O)CC[C@@]4(C)[C@@H](CC[C@@H]5[C@@H]4CC[C@]4(C)C(=O)CC[C@@H]54)C3)CC2C)c1 (stereo partly drawn) [Compound 11f]
Key: 50

Exercise: Need inhibition at 0.1 µM, item C[C@]12CC[C@](O)(CN3CCN(C(=O)c4ccccc4C(F)(F)F)CC3)C[C@@H]1CC[C@@H]1[C@@H]2CC[C@]2(C)C(=O)CC[C@@H]12 [Compound 12c]
Key: 62

Exercise: So what's the measured inhibition at 0.1 µM for this one? C[C@]12CC[C@](O)(CN3CCN(S(=O)(=O)c4ccccc4C(F)(F)F)CC3)C[C@@H]1CC[C@@H]1[C@@H]2CC[C@]2(C)C(=O)CC[C@@H]12 [Compound 14b]
Key: 45
